test.system: Androgen receptor (Homo sapiens)
Sequence (whole entry): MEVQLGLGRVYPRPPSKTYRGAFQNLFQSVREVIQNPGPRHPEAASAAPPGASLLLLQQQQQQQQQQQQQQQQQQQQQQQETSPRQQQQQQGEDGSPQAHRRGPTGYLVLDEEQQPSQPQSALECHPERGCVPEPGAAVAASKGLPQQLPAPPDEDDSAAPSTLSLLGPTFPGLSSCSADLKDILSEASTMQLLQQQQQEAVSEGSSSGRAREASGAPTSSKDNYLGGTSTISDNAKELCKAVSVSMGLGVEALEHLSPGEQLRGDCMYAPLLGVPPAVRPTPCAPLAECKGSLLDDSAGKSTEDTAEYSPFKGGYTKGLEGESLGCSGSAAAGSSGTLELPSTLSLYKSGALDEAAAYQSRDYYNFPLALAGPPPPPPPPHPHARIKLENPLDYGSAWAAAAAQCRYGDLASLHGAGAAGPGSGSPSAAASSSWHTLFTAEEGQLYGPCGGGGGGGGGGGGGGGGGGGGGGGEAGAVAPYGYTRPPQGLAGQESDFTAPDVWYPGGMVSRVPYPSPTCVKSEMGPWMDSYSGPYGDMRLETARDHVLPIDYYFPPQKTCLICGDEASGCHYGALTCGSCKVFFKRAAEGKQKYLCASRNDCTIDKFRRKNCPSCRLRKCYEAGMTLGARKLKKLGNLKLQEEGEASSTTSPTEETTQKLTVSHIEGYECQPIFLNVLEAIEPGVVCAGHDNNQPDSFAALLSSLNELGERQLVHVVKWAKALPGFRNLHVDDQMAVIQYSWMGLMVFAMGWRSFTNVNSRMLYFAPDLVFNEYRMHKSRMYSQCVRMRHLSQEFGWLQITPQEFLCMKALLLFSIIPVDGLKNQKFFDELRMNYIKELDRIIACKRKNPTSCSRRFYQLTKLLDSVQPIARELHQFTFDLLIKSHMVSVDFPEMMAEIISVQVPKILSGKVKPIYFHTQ
experiment.description: Induction of androgen receptor degradation in human VCaP cells at 0.1 uM after 24 hrs by Western blotting analysis relative to control
Assay type: cell-based
quantity.name: Activity

C[C@H]1CC2(CCN(c3ccc(C(=O)N4CCN(C5CN(c6ccc7c(c6)C(=O)N(C6CCC(=O)NC6=O)C7=O)C5)CC4)cc3)CC2)CN1c1cnc(C#N)c(C(F)(F)F)c1 (stereo partly drawn) = > 95%
C[C@H]1CC2(CCN(c3ccc(C(=O)N4C[C@@H]5C[C@H]4CN5C4CN(c5ccc6c(c5)C(=O)N(C5CCC(=O)NC5=O)C6=O)C4)cc3)CC2)CN1c1ccc(C#N)c(Cl)c1 (stereo partly drawn) = > 95%

Ask | Please give the measured Activity for this molecule: N#Cc1ccc(N2CCC3(CCN(C(=O)c4ccc(C(=O)N5CCN(CC6CCN(c7ccc8c(c7)C(=O)N(C7CCC(=O)NC7=O)C8=O)CC6)CC5)cc4)CC3)C2)cc1Cl (stereo not drawn)
Reply | < 5%

====

test.system: Androgen receptor (Homo sapiens)
experiment.description: Induction of androgen receptor degradation in human VCaP cells at 0.01 uM after 24 hrs by Western blotting analysis relative to control
Format: cell-based
quantity.name: Activity

Solved entries:
N#Cc1ccc(N2CCC3(CCN(c4ccc(C(=O)N5CC6(C5)CN(C5CCN(c7ccc8c(c7)C(=O)N(C7CCC(=O)NC7=O)C8=O)CC5)C6)cc4)CC3)C2)cc1Cl (stereo not given) = < 5%
C[C@H]1CC2(CCN(c3ccc(C(=O)N4C[C@@H]5C[C@H]4CN5C4CN(c5ccc6c(c5)C(=O)N(C5CCC(=O)NC5=O)C6=O)C4)cc3)CC2)CN1c1ccc(C#N)c(Cl)c1 (stereo not given in full) = > 90%
C[C@H]1CC2(CCN(c3ccc(C(=O)N4CCN(CC5CCN(c6ccc7c(c6)C(=O)N(C6CCC(=O)NC6=O)C7=O)CC5)CC4)cc3)CC2)CN1c1ccc(C#N)c(Cl)c1 (stereo not given in full) = > 90%
C[C@H]1CC2(CCN(c3ccc(C(=O)N4CC(N5CCN(c6ccc7c(c6)C(=O)N(C6CCC(=O)NC6=O)C7=O)CC5)C4)cc3)CC2)CN1c1ccc(C#N)c(Cl)c1 (stereo not given in full) = > 90%
C[C@H]1CC2(CCN(c3ccc(C(=O)N4CCN(C5CN(c6ccc7c(c6)C(=O)N(C6CCC(=O)NC6=O)C7=O)C5)CC4)cc3)CC2)CN1c1ccc(C#N)c(F)c1 (stereo not given in full) = > 90%
C[C@H]1CC2(CCN(c3ccc(C(=O)N4CCN(CC5CN(c6ccc7c(c6)C(=O)N(C6CCC(=O)NC6=O)C7=O)C5)CC4)cc3)CC2)CN1c1ccc(C#N)c(Cl)c1 (stereo not given in full) = > 90%
C[C@H]1CC2(CCN(c3ccc(C(=O)N4CCN(C5CN(c6ccc7c(c6)C(=O)N(C6CCC(=O)NC6=O)C7=O)C5)CC4)cc3)CC2)CN1c1ccc(C#N)c(C(F)F)c1 (stereo not given in full) = > 90%
N#Cc1ccc(N2CCC3(CCN(c4ccc(C(=O)N5CCCN(C6CCN(c7ccc8c(c7)C(=O)N(C7CCC(=O)NC7=O)C8=O)CC6)CCC5)cc4)CC3)C2)cc1Cl (stereo not given) = < 5%

Ask | State the recorded Activity for this entry: C[C@H]1CC2(CCN(c3ccc(C(=O)N4CCN(C5CCN(c6ccc7c(c6)C(=O)N(C6CCC(=O)NC6=O)C7=O)CC5)CC4)cc3)CC2)CN1c1ccc(C#N)c(Cl)c1 (stereo not given in full)
Reply | > 90%

Ask | Any idea what its Activity is? The compound is N#Cc1ccc(N2CCC3(CCN(C(=O)c4ccc(N5CCN(C6CCN(c7ccc8c(c7)C(=O)N(C7CCC(=O)NC7=O)C8=O)CC6)CC5)cc4)CC3)C2)cc1Cl (stereo not given)
Reply | < 5%

Measured values drawn from ChEMBL document CHEMBL5331127 for this set.
